Target: Coagulation factor XI (Homo sapiens) (UniProt P03951)
Sequence (P03951 19-387 limits assumed): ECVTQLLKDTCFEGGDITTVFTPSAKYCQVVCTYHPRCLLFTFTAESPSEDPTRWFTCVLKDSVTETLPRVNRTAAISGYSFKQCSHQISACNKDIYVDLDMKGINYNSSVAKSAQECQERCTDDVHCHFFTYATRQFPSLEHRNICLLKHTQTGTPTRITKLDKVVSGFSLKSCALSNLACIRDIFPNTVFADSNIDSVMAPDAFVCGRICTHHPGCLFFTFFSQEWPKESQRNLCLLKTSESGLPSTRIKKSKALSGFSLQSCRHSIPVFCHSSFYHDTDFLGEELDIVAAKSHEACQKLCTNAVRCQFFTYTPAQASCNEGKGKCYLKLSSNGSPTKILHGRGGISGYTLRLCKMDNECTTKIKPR
Sequence (P03951 388-625 limits assumed): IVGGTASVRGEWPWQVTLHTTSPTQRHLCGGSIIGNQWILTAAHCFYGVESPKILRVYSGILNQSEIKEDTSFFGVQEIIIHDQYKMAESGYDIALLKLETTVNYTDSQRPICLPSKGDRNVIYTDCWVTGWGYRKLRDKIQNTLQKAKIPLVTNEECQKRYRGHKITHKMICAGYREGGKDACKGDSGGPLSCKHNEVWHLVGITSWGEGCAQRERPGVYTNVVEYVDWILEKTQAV
Assay: factor XIa enzyme inhibition, large library – biochemical, 1536-well, primary screen (AID 798);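 further: fluorescence of freed AMC excited at 355 nm; 0% = enzyme without compound and 100% = no enzyme blank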
Conditions: purified FXIa, Boc-Glu-Ala-Arg-AMC fluorogenic substrate; at 5 µM; hits give high values
Screen size: about 220,000 compounds; about 300 (0.14%) were called active. The sample holds actives, similar compounds and a random draw of the others, so the mix is not that of the screen.
inhibition: recorded values
VALUE_TYPE: inhibition (%)

| COMPOUND | REPORTED |
| --- | --- |
| O=C(CCN1CCN(C/C=C/c2ccccc2)CC1)Nc1cccc(F)c1 | -3.15 |
| COC(=O)c1c(NC(=O)CCCC(=O)O)sc2c1CCCCC2 | -0.58 |
| O=C(NCC(=O)N(CC1CCCO1)C(C(=O)NC1CCCCC1)c1ccccc1)c1ccco1 (stereo not given) | -1.28 |
| CC(C)c1nc(SCC(=O)NC(=O)NC(C)(C)C)n[nH]1 | 1.78 |
| CCOC(=O)CSC1=N/C(=C/c2ccc(-n3cncn3)cc2)C(=O)N1C(C)=O | 3.79 |
| Cc1cnc(NC(=O)c2ccccn2)s1 | -1.62 |
| COCCNC(=S)N1CCC(NC(=O)C23CC4CC(CC(C4)C2)C3)CC1 | -6.69 |
| COc1ccc(OCC(=O)N2CCN(C(=O)c3cccs3)CC2)cc1 | -3.87 |
| CCOC(=O)c1ccc(NC(=O)Cn2cnc3cc(C)c(C)cc32)cc1 | -1.09 |
| Cc1nc(N)[nH]c(=O)c1Oc1cccc(C(F)(F)F)c1 | -2.42 |
| Cc1ccc(C(=O)Cn2cc([N+](=O)[O-])nc2C)cc1 | 2.54 |
| O=C1N/C(=C/c2cccn2-c2ccccc2)C(=O)N1c1cccc(Cl)c1 | -9.57 |
| O=S(=O)(NC(=S)Nc1ccccc1)c1ccc(F)cc1 | 4.03 |
| CC(C)OP(=O)(OC(C)C)C(Nc1ccccc1)c1cccc([N+](=O)[O-])c1 (stereo not given) | 2.9 |
| COc1cccc(N2C(=O)CC(N3CCc4ccccc4C3)C2=O)c1 (stereo not given) | -2.99 |
| CC(C)C(NC(=O)C1CCC(C(C)(C)C)CC1)C(=O)NCCCN1CCCCC1 (stereo not given) | -3.84 |
| COC(=O)CCCC1=CC2=CC(=O)C(C)(OC(=O)c3cccs3)C(=O)C2=CN1CC1CC1 (stereo not given) | 0.2 |
| N#Cc1ccccc1NC(=O)COc1c(Br)cc(Br)c2cccnc12 | 0.52 |
| COc1ccc(CN(Cc2ccc(OC)cc2)C(=O)c2cccs2)cc1 | 54.2 |
| Cc1nc(N2CCOCC2)sc1C(=O)NN | -11.6 |
| CCSC1=NCCN1C(=O)c1ccc(S(=O)(=O)N(CC)CC)cc1 | -2.2 |
| Cc1cc(C)nc(-n2ncc3c2CC(c2ccc(C(C)C)cc2)CC3=O)n1 (stereo not given) | 4.85 |
| COc1ccc(CNC(=O)COC(=O)/C=C/c2ccc(S(=O)(=O)N3CCOCC3)cc2)cc1 | -3.11 |
| CN1CCCN(C(=O)C2CCCCC2)CC1 | -3.43 |
| Cc1cccc(N(C(=O)Cc2cccs2)C(C(=O)NCc2ccco2)c2ccncc2)c1 (stereo not given) | -1.59 |
